assay.procedure: Oral bioavailability in mouse at 10 mg/kg
Type: ADME, organism-based
stated.conditions: in vivo
measured.metric: bioavailability
Give the number first and the unit second.

Bench note: what bioavailability did N#C[C@@H]1C[C@H]1c1c(C(F)(F)F)sc2nc(Cn3nc(C(F)(F)F)cc3Cl)cc(=O)n12 show? 24%

====

target.or.system: Glutamate receptor 2 (Homo sapiens)
assay.procedure: Positive allosteric modulation of human GluA2 AMPAR flop isomer expressed in Dox-inducible cells at 125 uM measured every 5 mins by BD calcium indicator dye based-fluorescence analysis in presence of glutamate
Type: cell-based
Listing: %max of selected compounds
Express it in %; write the number only.

A selection of reference data follows.
CCNC(=O)c1c(C)sc2nc(Cc3cc(C#N)ccc3Cl)cc(=O)n12 : 0
CCNC(=O)c1c(C)sc2nc(COc3ccc(F)cc3)cc(=O)n12 : 15
CCNC(=O)c1c(C)sc2nc(CN(C)c3ccc(F)cc3)cc(=O)n12 : 2
CCN(Cc1cc(=O)n2c(C3CCC3)c(C)sc2n1)c1ccc(F)cc1 : 20

Pending compound:
// fetch Glutamate receptor 2 (Homo sapiens) %max for CCNC(=O)c1c(C)sc2nc(Cc3cccc(C(F)(F)F)c3F)cc(=O)n12 20

====

System: human MDR1 (P-gp)
assay.procedure: Efflux ratio of permeability from basolateral to apical over apical to basolateral side in MDCK cells expressing human MDR1
Format: ADME, cell-based, Canis lupus familiaris
stated.conditions: dog
Record Fulfilled whenever efflux ratio is at 10 or higher; record Not fulfilled when lower.

Example results:
CCNC(=O)c1c(C)sc2nc(Cn3ccc(C(F)(F)F)n3)cc(=O)n12 : Fulfilled
CCNC(=O)c1c(C)sc2nc(Cn3nc(C(F)(F)F)cc3Cl)cc(=O)n12 : Fulfilled
CCNC(=O)c1c(C)sc2nc(C(C)c3cccc(C(F)(F)F)c3F)cc(=O)n12 (racemic) : Not fulfilled
CCNC(=O)c1c(C)sc2nc(Cc3cc(C#N)ccc3C3CC3)cc(=O)n12 : Fulfilled

Has CCN(Cc1cc(=O)n2cc(C)sc2n1)c1ccc(F)cc1 a recorded efflux ratio greater than or equal to 10? Not fulfilled

Similarly, CCNC(=O)c1c(C)sc2nc(Cn3nc(C(F)(F)F)cc3C3CC3)cc(=O)n12 ? Not fulfilled

====

target.or.system: Glutamate receptor 2 (Homo sapiens, UniProt P42262)
Sequence (P42262 whole entry): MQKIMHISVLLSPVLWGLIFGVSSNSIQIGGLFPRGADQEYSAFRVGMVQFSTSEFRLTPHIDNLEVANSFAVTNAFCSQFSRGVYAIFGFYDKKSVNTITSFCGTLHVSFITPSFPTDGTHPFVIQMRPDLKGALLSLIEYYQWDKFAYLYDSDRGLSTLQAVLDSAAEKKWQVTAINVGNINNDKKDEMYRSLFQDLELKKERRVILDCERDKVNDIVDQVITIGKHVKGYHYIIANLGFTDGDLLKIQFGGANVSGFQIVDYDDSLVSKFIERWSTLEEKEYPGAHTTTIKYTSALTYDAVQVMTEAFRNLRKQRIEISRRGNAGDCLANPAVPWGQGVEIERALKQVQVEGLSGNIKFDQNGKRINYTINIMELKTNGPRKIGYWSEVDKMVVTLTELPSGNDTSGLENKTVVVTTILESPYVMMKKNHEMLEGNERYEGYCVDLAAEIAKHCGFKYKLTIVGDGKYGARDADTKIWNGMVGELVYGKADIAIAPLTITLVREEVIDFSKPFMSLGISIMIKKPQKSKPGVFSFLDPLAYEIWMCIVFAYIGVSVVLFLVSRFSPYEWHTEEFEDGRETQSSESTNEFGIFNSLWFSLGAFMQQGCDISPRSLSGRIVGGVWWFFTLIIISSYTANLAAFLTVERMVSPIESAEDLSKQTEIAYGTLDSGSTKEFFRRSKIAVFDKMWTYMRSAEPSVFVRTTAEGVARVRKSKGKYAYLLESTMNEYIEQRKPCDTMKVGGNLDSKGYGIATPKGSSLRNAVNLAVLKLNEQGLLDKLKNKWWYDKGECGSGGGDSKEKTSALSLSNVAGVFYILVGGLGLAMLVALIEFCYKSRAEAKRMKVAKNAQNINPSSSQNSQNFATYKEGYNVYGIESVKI
assay.procedure: Positive allosteric modulation of human GluA2 AMPAR flip isomer expressed in Dox-inducible cells at 125 uM measured every 5 mins by BD calcium indicator dye based-fluorescence analysis in presence of glutamate
Type: cell-based
Reported %max maps to class as: 1 (below 8%), 2 (8% to below 40%), 3 (40% or more)

CCN(Cc1cc(=O)n2cc(C)sc2n1)c1ccc(F)cc1 : 3
CCN(Cc1cc(=O)n2c(C3CC3)c(C)sc2n1)c1ccc(F)cc1 : 2
CCCN(Cc1cc(=O)n2c(C(=O)NCC)c(C)sc2n1)c1ccc(F)cc1 : 1
Cc1sc2nc(COc3ccc(F)cc3)cc(=O)n2c1[C@@H]1C[C@H]1CO : 1
CCN(Cc1cc(=O)n2c(CCO)c(C)sc2n1)c1ccc(F)cc1 : 3

Class (by measured %max) for CCNC(=O)c1c(C)sc2nc(Cc3cccc(C(F)(F)F)c3)cc(=O)n12 2

Similarly, CCNC(=O)c1c(C)sc2nc(C(C)c3cccc(C(F)(F)F)c3F)cc(=O)n12 (racemic) ? 1

Similarly, CCNC(=O)c1c(C)sc2nc(Cn3nc(C(F)(F)F)cc3OCC)cc(=O)n12 ? 2

Similarly, CCN(Cc1cc(=O)n2c([C@@H]3C[C@H]3CO)c(C)sc2n1)c1ccc(F)cc1 ? 3
